Origin of values: ChEMBL document CHEMBL3991601

target-under-test: Mitogen-activated protein kinase kinase kinase kinase 3 (Homo sapiens); note: in the data inactive means no Kd found up to 30 µM
Sequence (Q8IVH8 whole entry): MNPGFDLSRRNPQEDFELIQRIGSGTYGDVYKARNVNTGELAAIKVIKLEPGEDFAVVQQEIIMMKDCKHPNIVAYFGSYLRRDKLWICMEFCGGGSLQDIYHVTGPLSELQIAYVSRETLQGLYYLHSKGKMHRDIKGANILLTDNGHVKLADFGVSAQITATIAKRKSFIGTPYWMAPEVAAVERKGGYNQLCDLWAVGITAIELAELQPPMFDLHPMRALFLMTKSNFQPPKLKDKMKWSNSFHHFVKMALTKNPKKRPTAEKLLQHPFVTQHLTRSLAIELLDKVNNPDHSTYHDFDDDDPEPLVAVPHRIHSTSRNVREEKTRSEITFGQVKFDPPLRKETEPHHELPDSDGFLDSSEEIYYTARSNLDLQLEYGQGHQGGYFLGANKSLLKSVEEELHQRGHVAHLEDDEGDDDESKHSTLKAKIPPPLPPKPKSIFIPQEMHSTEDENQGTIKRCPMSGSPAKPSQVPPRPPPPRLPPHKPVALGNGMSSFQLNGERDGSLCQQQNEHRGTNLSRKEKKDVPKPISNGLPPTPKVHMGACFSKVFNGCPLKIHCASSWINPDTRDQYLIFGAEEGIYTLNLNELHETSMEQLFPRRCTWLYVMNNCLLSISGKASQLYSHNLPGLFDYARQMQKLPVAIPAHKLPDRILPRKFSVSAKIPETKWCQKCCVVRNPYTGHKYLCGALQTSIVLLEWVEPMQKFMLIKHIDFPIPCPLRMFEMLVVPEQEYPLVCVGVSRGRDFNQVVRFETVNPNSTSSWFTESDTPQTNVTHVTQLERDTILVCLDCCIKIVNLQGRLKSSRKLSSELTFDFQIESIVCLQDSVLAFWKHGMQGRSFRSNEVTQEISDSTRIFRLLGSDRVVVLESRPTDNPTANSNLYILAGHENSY
Where a name gives a salt, the structure may show the parent alone. The source made the active and inactive calls.
Allowed answers: active, inactive

Here are 5 compounds together with their reported answers.
CCNC(=O)C#Cc1ccc2c(c1)NC(=O)/C2=C(\Nc1ccc(CN(C)C)cc1)c1ccccc1: inactive
C[C@@H](N)c1ccc(C(=O)Nc2ccnc3[nH]ccc23)cc1: inactive
NC1(c2ccc(-c3nc4ccn5c(=O)[nH]nc5c4cc3-c3ccccc3)cc2)CCC1: inactive
CCn1c(C(=O)N(C2CC2)C2CC2)cc2c3c(ncn3C)c(Nc3cc(C)n(C)n3)nc21: inactive
C=CC(=O)N1CCC[C@H](n2c(=O)n(-c3ccc(Oc4ccccc4)cc3)c3c(N)ncnc32)C1: inactive

Q: Kindly provide the recorded test outcome for the following compound: Cc1cnc(NC(=O)Nc2cc(Br)c(C)cc2OC[C@@H]2CNCCO2)cn1
Result: inactive

Q: Kindly provide the recorded test outcome for the following compound: C=CC(=O)Nc1cc2c(Nc3ccc(F)c(Cl)c3)ncnc2cc1C#CC(C)(C)N1CCN(C)CC1 [AV-412 FREE BASE]
Result: inactive

Q: Kindly provide the recorded test outcome for the following compound: CCS(=O)(=O)N1CCN(c2ccc(Nc3ncc(C(N)=O)c(NC4CC4)n3)cc2)CC1 [Cerdulatinib Hydrochloride]
Result: active

Q: Kindly provide the recorded test outcome for the following compound: CO[C@H]1C[C@@H]2CC[C@@H](C)[C@@](O)(O2)C(=O)C(=O)N2CCCC[C@H]2C(=O)O[C@H]([C@H](C)C[C@@H]2CC[C@@H](OP(C)(C)=O)[C@H](OC)C2)CC(=O)[C@H](C)/C=C(\C)[C@@H](O)[C@@H](OC)C(=O)[C@H](C)C[C@H](C)/C=C/C=C/C=C/1C
Result: inactive

* * *

target-under-test: Receptor-interacting serine/threonine-protein kinase 3 (Homo sapiens, UniProt Q9Y572); note: in the data inactive means no Kd found up to 30 µM
Sequence (Q9Y572 whole entry): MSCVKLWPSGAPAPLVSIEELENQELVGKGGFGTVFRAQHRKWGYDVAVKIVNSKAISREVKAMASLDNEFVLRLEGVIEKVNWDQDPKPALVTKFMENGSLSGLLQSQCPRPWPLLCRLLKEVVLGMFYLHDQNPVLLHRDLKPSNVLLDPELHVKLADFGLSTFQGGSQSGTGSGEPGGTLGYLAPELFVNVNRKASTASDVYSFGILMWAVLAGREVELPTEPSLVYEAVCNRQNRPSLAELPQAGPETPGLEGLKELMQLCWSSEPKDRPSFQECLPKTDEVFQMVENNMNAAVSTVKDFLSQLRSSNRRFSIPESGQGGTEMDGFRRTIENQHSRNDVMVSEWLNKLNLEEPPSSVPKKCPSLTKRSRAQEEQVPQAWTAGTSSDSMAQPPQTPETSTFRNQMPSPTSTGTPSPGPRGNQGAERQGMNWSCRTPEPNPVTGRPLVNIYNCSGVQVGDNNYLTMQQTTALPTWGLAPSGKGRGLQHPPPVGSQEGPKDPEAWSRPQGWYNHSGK
Calls of active or inactive are those of the source.
Allowed answers: active, inactive

Here are 4 molecules together with their reported answers.
COCc1c(-c2ccc(NC(=O)Nc3cc(C(F)(F)F)ccc3F)c(F)c2)c2c(N)ncnn2c1CN1CCOCC1: inactive
COCC(=O)NC/C=C/c1ccc2ncnc(Nc3ccc(Oc4ccc(C)nc4)c(C)c3)c2c1: inactive
Cc1nc(Nc2n[nH]c3c2CN(C(=O)N[C@H](CN(C)C)c2ccccc2)C3(C)C)c2sccc2n1: inactive
CNC(=O)c1cc(Oc2ccc(NC(=O)Nc3cc(C(C)(C)C)nn3-c3ccc4ncccc4c3)c(F)c2)ccn1: active

Q: Kindly provide the recorded test outcome for the following molecule: O=C(Nc1c[nH]nc1-c1nc2cc(CN3CCOCC3)ccc2[nH]1)NC1CC1
Result: inactive

Q: Kindly provide the recorded test outcome for the following molecule: N#CC1(c2ccc(NC(=O)c3cccnc3NCc3ccncc3)cc2)CCCC1
Result: active

Q: Kindly provide the recorded test outcome for the following molecule: Cc1cc(Nc2ncc(Cl)c(Nc3ccccc3S(=O)(=O)C(C)C)n2)c(OC(C)C)cc1C1CCNCC1
Result: inactive

Q: Kindly provide the recorded test outcome for the following molecule: Cc1cccc(-c2nn3c(c2-c2ccnc4ccc(C(N)=O)cc24)CCC3)n1
Result: active

Q: Kindly provide the recorded test outcome for the following molecule: C[C@@H](N)c1ccc(C(=O)Nc2ccnc3[nH]ccc23)cc1
Result: inactive

* * *

Attribute: Kd
target-under-test: Activin receptor type-2B (Homo sapiens, UniProt Q13705); note: in the data inactive means no Kd found up to 30 µM
Sequence (Q13705 whole entry): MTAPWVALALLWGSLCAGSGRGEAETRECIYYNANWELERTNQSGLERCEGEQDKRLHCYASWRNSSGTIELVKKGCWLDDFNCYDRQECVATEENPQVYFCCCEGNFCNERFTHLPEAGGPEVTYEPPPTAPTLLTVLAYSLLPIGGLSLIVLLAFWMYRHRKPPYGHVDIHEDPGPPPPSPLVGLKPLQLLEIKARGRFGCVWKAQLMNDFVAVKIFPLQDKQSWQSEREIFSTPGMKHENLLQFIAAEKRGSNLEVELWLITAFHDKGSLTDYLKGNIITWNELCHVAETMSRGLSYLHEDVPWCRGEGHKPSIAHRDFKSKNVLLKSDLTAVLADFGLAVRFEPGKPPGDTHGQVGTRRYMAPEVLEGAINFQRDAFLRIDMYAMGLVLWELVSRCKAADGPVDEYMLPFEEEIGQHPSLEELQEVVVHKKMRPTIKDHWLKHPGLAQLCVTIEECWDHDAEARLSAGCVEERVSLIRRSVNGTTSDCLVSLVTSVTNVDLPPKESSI
Active and inactive are the calls of the source.

Examples with answers:
NC(=O)c1c(OCc2c(F)cc(Br)cc2F)nsc1NC(=O)NCCCCN1CCCC1: > 30 µM (inactive)
CNC(=O)c1cccc2cc(Oc3ccnc4cc(OCC5(N)CC5)c(OC)cc34)ccc12: > 30 µM (inactive)
CNC(=O)c1nn(C)c2c1C(C)(C)Cc1cnc(Nc3ccc(N4CCN(C)CC4)cc3)nc1-2: > 30 µM (inactive)
C[C@@H](NC(=O)c1ncnc(N)c1Cl)c1ncc(C(=O)Nc2cc(C(F)(F)F)c(Cl)cn2)s1: > 30 µM (inactive)
Cn1ncc(Cl)c1-c1cc(C(=O)N[C@H](CN)Cc2ccc(F)c(F)c2)oc1Cl: > 30 µM (inactive)
Cc1cc(C(=O)NOCCO)c(Nc2ccc(I)cc2F)n(C)c1=O: > 30 µM (inactive)

Q: Find the measured Kd: item Cc1cnc(NC(=O)Nc2cc(Br)c(C)cc2OC[C@@H]2CNCCO2)cn1 , target or system Activin receptor type-2B (Homo sapiens, UniProt Q13705). Note: in the data inactive means no Kd found up to 30 µM.
Result: > 30 µM (inactive)

Q: Find the measured Kd: item C=CC(=O)Nc1cc2c(Nc3ccc(F)c(Cl)c3)ncnc2cc1C#CC(C)(C)N1CCN(C)CC1 [AV-412 FREE BASE] , target or system Activin receptor type-2B (Homo sapiens, UniProt Q13705). Note: in the data inactive means no Kd found up to 30 µM.
Result: > 30 µM (inactive)

* * *

target-under-test: Mitogen-activated protein kinase kinase kinase 6 (Homo sapiens); note: in the data inactive means no Kd found up to 30 µM
Sequence (O95382 whole entry): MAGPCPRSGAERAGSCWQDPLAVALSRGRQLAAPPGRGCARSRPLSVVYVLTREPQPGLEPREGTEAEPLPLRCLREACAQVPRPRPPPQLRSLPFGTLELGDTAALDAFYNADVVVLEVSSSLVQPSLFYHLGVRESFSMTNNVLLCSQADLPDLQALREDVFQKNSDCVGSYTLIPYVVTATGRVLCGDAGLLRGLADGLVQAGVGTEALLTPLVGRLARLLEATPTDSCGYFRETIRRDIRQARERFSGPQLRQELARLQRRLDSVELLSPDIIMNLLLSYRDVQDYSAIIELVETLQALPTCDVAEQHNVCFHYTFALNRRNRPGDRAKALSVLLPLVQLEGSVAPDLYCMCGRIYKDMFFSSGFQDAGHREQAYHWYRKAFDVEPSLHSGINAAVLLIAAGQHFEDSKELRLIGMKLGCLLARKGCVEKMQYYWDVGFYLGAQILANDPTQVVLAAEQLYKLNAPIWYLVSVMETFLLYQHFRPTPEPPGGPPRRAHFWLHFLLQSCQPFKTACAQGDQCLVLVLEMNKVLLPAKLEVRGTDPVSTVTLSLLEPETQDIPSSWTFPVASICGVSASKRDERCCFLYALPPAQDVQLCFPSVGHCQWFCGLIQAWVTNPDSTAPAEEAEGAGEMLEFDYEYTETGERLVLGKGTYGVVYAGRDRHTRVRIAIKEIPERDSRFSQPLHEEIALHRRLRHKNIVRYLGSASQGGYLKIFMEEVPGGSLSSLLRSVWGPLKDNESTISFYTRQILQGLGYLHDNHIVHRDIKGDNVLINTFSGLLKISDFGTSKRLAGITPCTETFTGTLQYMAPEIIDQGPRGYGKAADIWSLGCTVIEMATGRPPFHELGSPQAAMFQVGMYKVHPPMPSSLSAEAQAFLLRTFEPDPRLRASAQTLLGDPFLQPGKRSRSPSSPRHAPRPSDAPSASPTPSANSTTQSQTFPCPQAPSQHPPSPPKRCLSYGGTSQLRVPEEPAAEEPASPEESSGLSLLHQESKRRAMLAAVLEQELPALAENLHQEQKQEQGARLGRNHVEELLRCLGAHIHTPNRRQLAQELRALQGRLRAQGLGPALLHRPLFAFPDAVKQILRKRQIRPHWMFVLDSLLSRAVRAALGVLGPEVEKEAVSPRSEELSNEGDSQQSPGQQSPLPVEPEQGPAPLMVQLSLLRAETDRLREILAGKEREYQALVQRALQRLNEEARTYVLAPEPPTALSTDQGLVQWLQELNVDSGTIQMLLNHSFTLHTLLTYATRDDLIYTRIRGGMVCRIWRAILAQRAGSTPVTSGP
The source made the active and inactive calls.
Allowed answers: active, inactive

Here are 6 compounds together with their reported answers.
Cc1nc(NC(=O)N2CCC[C@H]2C(N)=O)sc1-c1ccnc(C(C)(C)C(F)(F)F)c1: inactive
C[C@@H](NC(=O)c1ncnc(N)c1Cl)c1ncc(C(=O)Nc2cc(C(F)(F)F)c(Cl)cn2)s1: inactive
O=C(Cc1ccc(-c2ccc(OCCN3CCOCC3)cc2)cn1)NCc1ccccc1: inactive
Cn1cc(-c2cnn3c(N)c(Br)c([C@@H]4CCCNC4)nc23)cn1: inactive
COc1ccc(S(=O)(=O)N(C(C)=O)c2ccccc2/C=C/c2cc[n+]([O-])cc2)cc1: inactive
Cc1cc(Nc2ncnc3ccc(NC4=NC(C)(C)CO4)cc23)ccc1Oc1ccn2ncnc2c1: inactive

Q: Kindly provide the recorded test outcome for the following compound: O=C(Nc1nc2cccc(-c3ccc(CN4CCS(=O)(=O)CC4)cc3)n2n1)C1CC1
Result: inactive
